target: CCR5 (UniProt P51681); assay: cell-based or functional assay
PROPERTY MEASURED: CCR5 sequestration (%) (% of control surface CCR5)

• Met-RANTES (from UniProt P13501 24-91) (ligand) = 26
• PSC-RANTES (ligand) = 75
• NNY-RANTES (n-nonanoyl-RANTES(2-68)) (from UniProt P13501 25-91) (ligand) = 77
• AOP-RANTES, the aminooxypentane oxime of [glyoxylyl]1RANTES(2-68) (from UniProt P13501 25-91) (ligand) = 71

* * *

target: CCR5 (UniProt P51681); assay: cell-based or functional assay
List of CCR5 signalling (%) (% of Emax of PSC-RANTES) values.
PROPERTY MEASURED: CCR5 signalling (%) (% of Emax of PSC-RANTES)

• Met-RANTES (from UniProt P13501 24-91) (ligand) = 15
• NNY-RANTES (n-nonanoyl-RANTES(2-68)) (from UniProt P13501 25-91) (ligand) = 84.5
• PSC-RANTES (ligand) = 100
• AOP-RANTES, the aminooxypentane oxime of [glyoxylyl]1RANTES(2-68) (from UniProt P13501 25-91) (ligand) = 80.7
